# System: OVCAR-3
# EXPERIMENT: Inhibitory activity against OVCAR-3 cell growth
# Type: functional, cell-based
# CONDITION CONTEXT: Homo sapiens
RECORDED ENDPOINT: IC50

MOLECULE | MEASUREMENT TARGET | RESULT
CCCCCCCCCCCCCCCCOP(=O)([O-])OCC[N+](C)(C)C [MILTEFOSINE] | OVCAR-3 | > 30 µM

----------
# Tested on: OVCAR-3
# EXPERIMENT: Inhibitory activity against OVCAR-3 epithelial Cancer cell line at the concentration 0-30 uM for 48 hr
# Type: functional, cell-based
# CONDITION CONTEXT: Homo sapiens, OVCAR-3, 48 h
RECORDED ENDPOINT: IC50 (µM)

SMILES ENTRY | RESULT
CCCCCCCCCCCCCCCCOC[C@H](CO[C@H]1O[C@@H](CO)[C@H](O)[C@@H](O)[C@@H]1NC(C)=O)OC | 12
CCCCCCCCCCCCCCCCOC[C@H](CO[C@H]1O[C@@H](CO)[C@H](O)[C@@H](O)[C@@H]1N)OC | 4
